Each entry below lists one item and its recorded growth value.
Tested on: EKVX NSCLC
test-method-notes: NCI-60 one-dose screen, 48 h (100 = growth as untreated, 0 = no growth, -100 = all killed)
study-conditions: 10 µM unless noted
Description: Growth inhibition of the EKVX human Non-Small Cell Lung tumor cell line is measured as a screen for anti-cancer activity. Cells are grown in 96 well plates and exposed to the test compound for 48 hours. Compounds are tested at a single concentration, which is 10^-5 M for most compounds. The reported endpoint is percent growth (GI% or GIPRCNT), where numbers from 0 - 100% represent growth inhibition, and numbers from -100% - 0 represent cell death. […]
About 83,000 compounds went through this panel and 20% of them were active in at least one assay; those are over-represented in the sample as a whole.
Answer with a number only, understood to be in %.

Previously resolved entries follow.
CN(CCCCCl)P(=O)(OCc1ccc([N+](=O)[O-])o1)C(F)(F)c1ccc(CC(=O)NC[C@@H](O)/C=C\[C@@H](O)[C@H](CO)Cc2ccccc2)cc1 (stereo not given in full)	99.3
NC(=NC1C2CC3CC(C2)CC1C3)Nc1ccc(I)cc1 (stereo not given)	32.2
Cn1cc(-c2nonc2-c2c[nH]c3ccccc23)c2cccnc21	49.7
Cc1ncc(C(=O)Nc2ccc(CN3CCN(C)CC3)c(C(F)(F)F)c2)cc1C#Cc1cnc2cccnn12	-3.95
C=CC(=O)Nc1cccc(-c2nc(SC)nc(NCCN3CCOCC3)c2C#N)c1	86.5
CSc1nc(Nc2cccc(NC(=O)/C(C#N)=C/c3c(Cl)cccc3Cl)c2)c(C#N)c(-c2cccc([N+](=O)[O-])c2)n1	56.7

Inquiry: Report growth for COC(=O)c1ccc2oc(NC(=O)c3ccc(Nc4ccc([N+](=O)[O-])cc4C)c([N+](=O)[O-])c3)nc2c1
Reply text: 79.9

Inquiry: Report growth for Brc1ccc(-c2csc(Nc3ccccn3)n2)cc1
Reply text: 70

Inquiry: Report growth for NCCNc1nc(Nc2ccc(-c3nc4ccccc4[nH]3)cc2)c2cn[nH]c2n1
Reply text: 88.9

Inquiry: Report growth for O=[N+]([O-])c1ccc2c(c1)Cc1cc(F)ccc1-2
Reply text: 68.7

====

System: SK-OV-3 ovarian
test-method-notes: NCI-60 one-dose screen, 48 h
study-conditions: 10 µM unless noted
Compounds without any hit were thinned out: in the full panel of roughly 83,000, 20% have a hit. Active and inactive are the calls of the source. The calls were made as follows: active = growth percent below 10; inactive = the rest.
Respond with a class label; see label 1 = active, label 0 = inactive

C=CC(=O)Nc1cccc(-c2nc(SC)nc(Nc3cccc(OC)c3)c2C#N)c1	label 0
Cc1nn(-c2cc(=O)[nH]c3ccccc23)c(N)c1C#N	label 0
O=C(CN(C(=O)Cn1c(=O)n2nnnc2c2ccccc21)c1ccccc1C(F)(F)F)Nc1ccc(C(F)(F)F)cc1	label 0
Cc1cc(N2CCCCCC2)nc(NC2CCCC(Nc3ccnc4cc(Cl)ccc34)C2)n1 (stereo not given)	label 1

Inquiry: Which result was noted for this compound in the test: Cn1ncc2c(=O)nc3c(-c4ccccc4)n[nH]n3c21
Reply text: label 0

Inquiry: Which result was noted for this compound in the test: Cn1c(NCCc2ccc(O)c(O)c2)nc2c1c(=O)n(Cc1ccc(Cl)c(Cl)c1)c(=O)n2C
Reply text: label 0

Inquiry: Which result was noted for this compound in the test: COC(=O)[C@@H]1CCCN1C(=O)[C@@H]1CCCN1C(=O)[C@H](Cc1ccccc1)NC(=S)Nc1cc(C(F)(F)F)cc(C(F)(F)F)c1
Reply text: label 0

====

Test system: MALME-3M melanoma
test-method-notes: NCI-60 one-dose screen, 48 h (100 = growth as untreated, 0 = no growth, -100 = all killed)
study-conditions: 10 µM unless noted
Compounds without any hit were thinned out: in the full panel of roughly 83,000, 20% have a hit.
property-name: growth (%)
Answer with a number only, understood to be in %.

Previously resolved entries follow.
O=S(=O)(Nc1ccc(Cl)c(F)c1)c1ccc(-c2cnc(C3CC3)o2)cc1	35.3
O=C(/C=C/c1cccc(Cl)c1)c1ccc(O)c(CN2CCN(c3cc4c(cc3F)c(=O)c(C(=O)O)cn4C3CC3)CC2)c1	44.1

Could you now consider this next compound?
Inquiry: Report growth for O=C(COc1ccc(-c2nc3cc(Cl)c(Cl)cc3[nH]2)cc1)N=Nc1c(O)[nH]c2ccccc12
Reply text: -68.9

====

Test system: CCRF-CEM leukemia
test-method-notes: NCI-60 one-dose screen, 48 h
study-conditions: 10 µM unless noted
The panel holds about 83,000 compounds, 20% with a hit somewhere; the sample as a whole holds those more often. Calls of active or inactive are those of the source. Rule for the calls: active = growth percent below 10; inactive = the rest.
Respond with a class label; see active, inactive

Reference set (3 entries):
N#Cc1c(-c2ccc(Cl)cc2)nc(NN=Cc2ccco2)nc1N1CCOCC1	inactive
O=C1C=C(O)C(=O)C(CC2=C(O)C(=O)C=C(O)C2=O)=C1O	inactive
C=CC(=O)Nc1cccc(-c2nc(SC)nc(NCCN3CCOCC3)c2C#N)c1	inactive

Inquiry: Which result was noted for this molecule in the test: O=C1/C(=C/c2ccccc2O)N=C2SCCCN12
Reply text: inactive

Inquiry: Which result was noted for this molecule in the test: Fc1ccc(CNc2cccc3[nH]c(C(F)(F)F)nc23)cc1
Reply text: inactive

Inquiry: Which result was noted for this molecule in the test: C=CC(=O)Nc1cccc(-c2nc(SC)nc(Nc3cccc(OC)c3)c2C#N)c1
Reply text: inactive

Inquiry: Which result was noted for this molecule in the test: CC(=O)Oc1ccc(Cl)cc1CN(C(C)=O)C1CCCCC1
Reply text: inactive

====

System: COLO 205 colon
test-method-notes: NCI-60 one-dose screen, 48 h
study-conditions: 10 µM unless noted
About 83,000 compounds went through this panel and 20% of them were active in at least one assay; those are over-represented in the sample as a whole. The source made the active and inactive calls. How the source made its calls: active means growth percent below 10; inactive means the rest.
Respond with a class label; see active, inactive

CC(=O)Nc1ccc(-n2c(O)c(/C=N/NC(=O)Cc3ccccc3Nc3c(Cl)cccc3Cl)sc2=S)cc1	inactive
Cn1cc(C(=O)c2nc(-c3c[nH]c4ccc(Br)cc34)no2)c2cc(F)ccc21	inactive
CC1=C[C@H]2c3c(c(O)c(O)c4oc5cc(O)ccc5c(=O)c34)[C@H](c3cc(O)c(O)c4oc5cc(O)ccc5c(=O)c34)[C@H]2C(C)(C)C1	inactive
CCC#CC[C@H](O)C/C=C1/C(=O)C=C[C@@H]1C/C=C\CCCC(=O)OC	active
Cn1cc(-c2nonc2-c2c[nH]c3ccccc23)c2cccnc21	inactive

Inquiry: Which result was noted for this compound in the test: O=C1Nc2c(ccc(Cl)c2Cl)/C1=C\c1cc(C(F)(F)F)cc(C(F)(F)F)c1
Reply text: active

Inquiry: Which result was noted for this compound in the test: O=C1/C(=C/c2ccccc2)SC(=S)N1CCc1ccc(O)cc1
Reply text: inactive

====

System: U251 CNS
test-method-notes: NCI-60 one-dose screen, 48 h
study-conditions: 10 µM unless noted
This is part of a sample that, as a whole, favours compounds with a hit. Of some 83,000 tested, about 20% had one in any assay. The source made the active and inactive calls. The calls were made as follows: active = growth percent below 10; inactive = the rest.
Respond with a class label; see active, inactive

Reference set (3 entries):
O=c1ccccc(-c2ccc(Br)cc2)c1O	active
COc1ccc(-c2cc(=O)c3c(OC)c4ccoc4cc3o2)cc1	inactive
Cc1cc2c3ccccc3ccc2[n+]2ccccc12	active

Inquiry: Which result was noted for this compound in the test: COc1cc(C(=O)/C=C/c2cccnc2Nc2ccc(Cl)cc2)cc(OC)c1OC
Reply text: active

Inquiry: Which result was noted for this compound in the test: Cc1cc(N2CCOCC2)nc(N[C@@H]2CCC[C@H](Nc3ccnc4cc(Cl)ccc34)C2)n1
Reply text: active

Inquiry: Which result was noted for this compound in the test: COc1ccc(S(=O)(=O)N2CCN(C)CC2)cc1NC(=O)c1[nH]c(C)c2c1CCCCC2=O
Reply text: inactive

Inquiry: Which result was noted for this compound in the test: CC(=O)Nc1ccc(S(=O)(=O)Nc2cccc(-c3nc(-c4ccc(NC(=O)c5cccnc5)cc4Cl)no3)c2)cc1
Reply text: inactive

Inquiry: Which result was noted for this compound in the test: C#Cc1cccc(NC(=O)c2ccccc2NC(=O)CCl)c1
Reply text: inactive

Inquiry: Which result was noted for this compound in the test: COc1ccc(/C=C/c2nc3ccccc3nc2/C=C/c2ccc(OC)cc2)cc1
Reply text: inactive

====

System: UACC-62 melanoma
test-method-notes: NCI-60 one-dose screen, 48 h (100 = growth as untreated, 0 = no growth, -100 = all killed)
study-conditions: 10 µM unless noted
About 83,000 compounds went through this panel and 20% of them were active in at least one assay; those are over-represented in the sample as a whole.
Each entry below lists one item and its recorded growth value.
Answer with a number only, understood to be in %.

Previously resolved entries follow.
COc1ccc(C(=O)/C=C/c2cccnc2Nc2cc(OC)c(OC)c(OC)c2)cc1	50
CON1C(=O)CC[C@]2(C)[C@H]3CC[C@@H]4C([C@@]5(C)CCC(=O)O5)CC[C@@]4(C)[C@]3(C)CC[C@H]2C1(C)C (some centres undefined)	87.2
Cn1ncc2c(=O)nc3c(-c4ccccc4)n[nH]n3c21	96.7
CC(C)c1c(C(=O)c2ccccc2)c(-c2ccccc2)c(-c2ccc(F)cc2)n1CC[C@@H](O)C[C@@H](O)CC(=O)O	16.6
COc1ccc(-n2nc(C)c3c(Nc4ccc(NC(=O)Nc5ccc(Cl)c(C(F)(F)F)c5)cc4)ncnc32)cc1	4.84

Inquiry: Report growth for CC(C)(O)c1cn(CCCCN2C(=O)C(=O)c3ccccc32)nn1
Reply text: 98.1

Inquiry: Report growth for FC(F)(F)c1ccc(-c2cn3nc(-c4c[nH]c5ccc(Br)cc45)sc3n2)cc1
Reply text: 84.8

Inquiry: Report growth for NC(CSC(c1ccccc1)(c1ccccc1)c1ccc(Cl)cc1)C(=O)O (centres undefined)
Reply text: 7.9

Inquiry: Report growth for CC(=O)O[C@H]1[C@@H]2OC(=O)C(CSc3ccccc3)[C@@H]2C[C@H]2O[C@]2(C)CC/C=C(\C)CCC[C@@H]1C (some centres undefined)
Reply text: 38.3
